assay: NCI Yeast Anticancer Drug Screen. Data for the rad18 strain (AID 177); details: S. cerevisiae rad18 mutant growth inhibition; at 100.0 µM; stronger effect = higher value
This is part of a sample that, as a whole, favours compounds with a hit. Of some 79,000 tested, about 15% had one in any assay.

| COMPOUND | growth inhibition [%] |
| --- | --- |
| CSC(=Nc1ccccc1)N(c1ccccc1)c1nc(=[N+](C)C)ss1 | 98 |
| C[N+]1(CCCl)CC[N+](C)(CCCl)CC1 (stereo not drawn) | 97 |
| CCC1(OC(=O)CN)C(=O)OCc2c1cc1n(c2=O)Cc2cc3ccccc3nc2-1 (stereo not drawn) | 89 |
| CCC(=O)OC1CCn2c1nc1c2C(=O)C(C)=C(N2CC2)C1=O (stereo not drawn) | 91 |
| OC(c1ccc(Br)cc1)C(Cl)(Cl)Cl (stereo not drawn) | 98 |
| COC(=O)c1c(C)ccc2c(O)c3c(cc12)C(=O)c1c2c(cc(O)c1C3=O)C1(C)OC(C)(O2)C(O)C(N(C)C)C1O (stereo not drawn) | 88 |
| O=C1C=C(CN(CCCl)CCCl)C(=O)C=C1CN(CCCl)CCCl | 90 |
| CCCCCCCCCCCCCCCCP(=O)(O)OCC(N)C(=O)O (stereo not drawn) | 97 |
| CN(CCc1ccc(Br)cc1)CCN1CCCCC1 | 98 |
| Cn1cc(NC(=O)c2cc(NC(=O)CN=C(N)N)cn2C)cc1C(=O)NCCC(=N)N | 97 |
| NCCc1ccc(OCc2ccccc2)c(OCc2ccccc2)c1 | 94 |
| CCOC(=O)C1C2c3ccccc3C(c3ccccc32)C1C(=O)OCC (stereo not drawn) | 91 |
| O=[N+]([O-])c1oc2ccc3ccccc3c2c1CCO | 99 |
| O=C1C2CC(Cl)C(SSC3CC4C(=O)N(SC(Cl)(Cl)C(Cl)Cl)C(=O)C4CC3Cl)CC2C(=O)N1SC(Cl)(Cl)C(Cl)Cl (stereo not drawn) | 89 |
| C[C@@]12CCC(=O)C=C1CC[C@H]1C2=CC[C@]2(C)C1CC[C@@]2(C)O (stereo partly drawn) | 92 |
| C[C@]12CCC3[C@@H](CC[C@@H]4c5nonc5CC[C@]34C)C1CCC2=O (stereo partly drawn) | 83 |
| N#Cc1cc(N(CCCl)CCCl)c([N+](=O)[O-])cc1[N+](=O)[O-] | 95 |
| O=C(O)CCCOc1cc(Cl)c(Cl)cc1Cl | 77 |

Data origin, for the record: PubChem BioAssay (NCI)
